target: Receptor tyrosine-protein kinase erbB-2 (Homo sapiens) (UniProt P04626); assay: reducers of endogenous Her2 protein level, primary screen, SKBR3 breast tumor cells, AlphaScreen, ATP viability (AID 461); conditions: 18-24 h, at 10 µM, stronger effect = lower value;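 note: lower value means less Her2 protein in the cells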
Sequence (P04626 whole entry, looked up): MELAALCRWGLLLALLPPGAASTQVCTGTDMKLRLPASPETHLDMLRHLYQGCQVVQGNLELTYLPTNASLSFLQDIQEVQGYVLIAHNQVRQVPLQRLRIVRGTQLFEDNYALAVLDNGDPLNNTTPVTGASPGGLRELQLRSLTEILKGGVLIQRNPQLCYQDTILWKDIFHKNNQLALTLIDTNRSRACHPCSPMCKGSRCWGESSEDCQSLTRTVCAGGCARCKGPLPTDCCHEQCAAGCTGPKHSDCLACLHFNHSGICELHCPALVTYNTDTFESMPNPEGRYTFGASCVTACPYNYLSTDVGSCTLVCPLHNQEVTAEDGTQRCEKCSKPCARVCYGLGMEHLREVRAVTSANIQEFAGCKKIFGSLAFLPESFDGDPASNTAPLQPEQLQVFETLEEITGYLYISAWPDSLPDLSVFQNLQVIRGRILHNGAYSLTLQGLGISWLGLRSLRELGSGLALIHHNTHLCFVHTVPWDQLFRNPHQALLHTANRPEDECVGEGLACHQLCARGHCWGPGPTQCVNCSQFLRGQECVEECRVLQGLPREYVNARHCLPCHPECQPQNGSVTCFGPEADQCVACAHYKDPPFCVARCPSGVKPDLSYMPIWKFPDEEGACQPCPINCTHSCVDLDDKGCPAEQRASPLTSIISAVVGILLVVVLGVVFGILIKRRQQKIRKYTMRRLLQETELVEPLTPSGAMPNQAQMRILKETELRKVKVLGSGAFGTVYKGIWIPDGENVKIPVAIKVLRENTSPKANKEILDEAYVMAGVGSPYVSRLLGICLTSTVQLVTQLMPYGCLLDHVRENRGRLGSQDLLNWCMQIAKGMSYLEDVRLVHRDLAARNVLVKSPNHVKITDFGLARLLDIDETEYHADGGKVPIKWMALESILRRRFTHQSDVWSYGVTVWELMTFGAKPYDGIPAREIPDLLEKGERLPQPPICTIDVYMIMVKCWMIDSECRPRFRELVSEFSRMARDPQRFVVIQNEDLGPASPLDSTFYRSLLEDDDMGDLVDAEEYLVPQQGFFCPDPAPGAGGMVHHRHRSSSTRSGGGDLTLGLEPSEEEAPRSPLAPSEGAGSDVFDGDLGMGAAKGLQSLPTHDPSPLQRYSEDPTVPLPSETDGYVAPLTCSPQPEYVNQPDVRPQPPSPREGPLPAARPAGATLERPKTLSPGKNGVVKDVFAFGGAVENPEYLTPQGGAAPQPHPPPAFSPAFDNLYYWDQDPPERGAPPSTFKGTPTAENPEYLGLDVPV
Recorded measurements of Her2 level, one per entry
Please reply with the bare figure in % and do not write the unit itself.

Cc1nc(NC(=O)C2CC3CCCC(C2)C3=O)sc1C (centres undefined) | 99.5
Cc1ccccc1CN1CCN(CC(=O)NCc2ccccc2)C1=O | 117
Cc1cc(NS(=O)(=O)c2ccccc2)n(-c2ccccc2)n1 | 95.5
COc1ccccc1-n1cnc(N)c1C(C)=O | 103
CCn1c(=O)n(CC(=O)N(C)Cc2ccccc2)c(=O)c2ccccc21 | 93.5
COc1ccc(C2/C(=C(/O)c3cnn(-c4ccccc4)c3C)C(=O)C(=O)N2CCN(C)C)cc1OC (centres undefined) | 86
Cc1cccc(N(CC(N)=O)S(C)(=O)=O)c1C | 100
COCCNC(=O)C(c1cccc(OC)c1)N(Cc1cccs1)C(=O)Cn1nnc2ccccc21 (centres undefined) | 82

Ask | Supply Her2 level value. Item: COCCNC(=O)C(C)OC(=O)c1nsc(Cl)c1Cl (centres undefined)
Reply | 108

Ask | Supply Her2 level value. Item: `O=C(OCC(=O)N1CCC(Cc2ccccc2)CC1)c1ccc[nH]c1=O`
Reply | 102

Entry source: PubChem BioAssay
